Tested on: Langerhans's islets
Measurement notes: In vitro glucose stimulated insulin secretion from isolated Langerhans's islets
Type: cell-based
Measurement context: peptide 5 × 10^-1 mM, hydrochloride, with 10 mM glucose; isolated islets preincubated 24 hours at 37° C
Description: In vitro determination of the effect or the peptides on the glucose stimulated insulin secretion was carried out on Langerhans's islets isolated by collagenase technique and preincubated 24 hours at 37° C. Secretion tests were conducted with 10 mM of glucose and three peptide concentrations. All peptides have been tested in the form of their hydrochlorides together with 10 mmolar glucose, and the value is calculated as a percentage of the effect of 10 mmolar glucose alone.
Where a SMILES comes first, the peptide text is derived from it.
Property name: glucose stimulated insulin secretion, percentage of the effect of 10 mmolar glucose alone

Give measured glucose stimulated insulin secretion, percentage of the effect of 10 mmolar glucose alone for COC(=O)[C@H](CC(C)C)NC(=O)[C@H](CCCNC(=N)N)NC(=O)[C@H](CCC(N)=O)NC(=O)[C@H](CC(C)C)NC(=O)[C@H](CCCNC(=N)N)NC(=O)[C@H](C)NC(=O)[C@@H](N)CO [Peptide 5, seralaargleuglnargleuOMe, 3HCl] (H-SARLQRL-OMe) (Langerhans's islets).
140%

Give measured glucose stimulated insulin secretion, percentage of the effect of 10 mmolar glucose alone for COC(=O)[C@H](CC(C)C)NC(=O)[C@H](CCCNC(=N)N)NC(=O)[C@H](CCC(N)=O)NC(=O)[C@@H](N)CC(C)C [Peptide 3, leuglnargleuOMe, 2HCl] (H-LQRL-OMe) (Langerhans's islets).
127%

Give measured glucose stimulated insulin secretion, percentage of the effect of 10 mmolar glucose alone for COC(=O)[C@H](CC(C)C)NC(=O)[C@H](CCCNC(=N)N)NC(=O)[C@H](CCC(N)=O)NC(=O)[C@H](CC(C)C)NC(=O)[C@@H](N)CCCNC(=N)N [Peptide 4, argleuglnargleuOMe, 3HCl] (H-RLQRL-OMe) (Langerhans's islets).
120%

Give measured glucose stimulated insulin secretion, percentage of the effect of 10 mmolar glucose alone for COC(=O)[C@H](CC(C)C)NC(=O)[C@H](CCCNC(=N)N)NC(=O)[C@H](CCC(N)=O)NC(=O)[C@H](CC(C)C)NC(=O)[C@H](CCCNC(=N)N)NC(=O)[C@H](C)NC(=O)[C@H](CO)NC(=O)[C@@H](N)CC(=O)O [Peptide 6, aspseralaargleuglnargleuOMe, 3HCl] (H-DSARLQRL-OMe) (Langerhans's islets).
110%

Give measured glucose stimulated insulin secretion, percentage of the effect of 10 mmolar glucose alone for COC(=O)[C@H](CC(C)C)NC(=O)[C@H](CCCNC(=N)N)NC(=O)[C@@H](N)CCC(N)=O [Peptide 1, glnargleuOMe, 2HCl] (H-Gln-Arg-Leu-OMe) (Langerhans's islets).
113%

These measurements were taken from patent US4265884A.
